biological target: FLT-1 kinase (VEGFR1) (Homo sapiens, UniProt P17948); construct: CEREP, France (ran the assays); assay: Kinase Selectivity Assay (CEREP, HTRF); type: biochemical; conditions: read-out: % Inhibition at 10 μM Concentration, FLT-1 (VEGFR1)
Sequence (P17948 27-1338): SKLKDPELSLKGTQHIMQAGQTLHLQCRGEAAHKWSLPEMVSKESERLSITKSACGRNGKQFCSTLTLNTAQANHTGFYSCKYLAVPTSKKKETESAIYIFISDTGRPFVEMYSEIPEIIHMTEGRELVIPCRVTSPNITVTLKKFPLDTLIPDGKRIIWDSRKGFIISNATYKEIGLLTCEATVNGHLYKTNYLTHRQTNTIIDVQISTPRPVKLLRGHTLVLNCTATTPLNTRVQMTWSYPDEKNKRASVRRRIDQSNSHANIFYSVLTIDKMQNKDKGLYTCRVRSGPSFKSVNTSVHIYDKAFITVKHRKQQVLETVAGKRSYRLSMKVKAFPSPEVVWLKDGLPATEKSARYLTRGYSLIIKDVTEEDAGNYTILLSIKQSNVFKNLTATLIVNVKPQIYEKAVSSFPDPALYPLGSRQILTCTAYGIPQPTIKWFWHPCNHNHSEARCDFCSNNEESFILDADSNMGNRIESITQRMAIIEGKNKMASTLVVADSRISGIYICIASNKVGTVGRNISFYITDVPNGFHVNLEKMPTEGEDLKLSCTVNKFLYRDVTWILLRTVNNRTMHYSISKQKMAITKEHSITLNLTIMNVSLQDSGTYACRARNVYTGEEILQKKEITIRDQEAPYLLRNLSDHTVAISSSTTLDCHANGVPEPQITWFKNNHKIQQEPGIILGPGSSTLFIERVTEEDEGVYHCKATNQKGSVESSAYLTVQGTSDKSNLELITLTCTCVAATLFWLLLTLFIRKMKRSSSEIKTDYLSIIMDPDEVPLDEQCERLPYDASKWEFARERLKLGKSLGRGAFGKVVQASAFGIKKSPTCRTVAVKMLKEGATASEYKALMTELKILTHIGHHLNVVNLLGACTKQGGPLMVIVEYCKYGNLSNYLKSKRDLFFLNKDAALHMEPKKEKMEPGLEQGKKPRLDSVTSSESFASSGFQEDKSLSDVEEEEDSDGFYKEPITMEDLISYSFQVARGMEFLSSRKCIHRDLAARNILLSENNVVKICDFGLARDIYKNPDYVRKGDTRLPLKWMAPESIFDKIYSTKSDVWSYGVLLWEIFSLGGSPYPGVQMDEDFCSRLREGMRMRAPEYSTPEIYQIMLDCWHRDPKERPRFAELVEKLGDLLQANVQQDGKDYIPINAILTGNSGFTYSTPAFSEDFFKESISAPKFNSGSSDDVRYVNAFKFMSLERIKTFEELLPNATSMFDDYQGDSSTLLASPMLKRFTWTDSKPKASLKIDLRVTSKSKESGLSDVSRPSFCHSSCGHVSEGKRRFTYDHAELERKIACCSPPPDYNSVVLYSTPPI
The threshold is inclusive: inhibition at 10 µM of exactly 40% counts as Met; values below receive Not met.

A selection of reference data follows.
{"Compound": "O=C1Nc2ccccc2C1=Cc1ccc2c(/C=C/c3ccccn3)n[nH]c2c1 (mixture of isomers)", "Answer label": "Met"}
{"Compound": "O=C1Nc2ccccc2/C1=C\\c1ccc2c(/C=C/c3ccccc3Cl)n[nH]c2c1", "Answer label": "Met"}
{"Compound": "COc1ccc2c(c1)C(=Cc1ccc3c(-c4ccc(N5CCN(C)CC5)nc4)n[nH]c3c1)C(=O)N2 (mixture of isomers)", "Answer label": "Met"}
{"Compound": "O=C1Nc2ccccc2/C1=C\\c1ccc2[nH]nnc2c1", "Answer label": "Not met"}

Quick check: does O=C1Nc2ccccc2/C1=C\c1ccc2cn[nH]c2c1 have inhibition at 10 µM greater than or equal to 40%?
Not met

* * *

# key: entry, value: inhibition at 10 µM
molecular target: IGF1R kinase (Homo sapiens); assay: Kinase Selectivity Assay (CEREP, HTRF); assay type: biochemical; conditions: read-out: % Inhibition at 10 μM Concentration, IGF1R
Sequence (P08069 31-1367): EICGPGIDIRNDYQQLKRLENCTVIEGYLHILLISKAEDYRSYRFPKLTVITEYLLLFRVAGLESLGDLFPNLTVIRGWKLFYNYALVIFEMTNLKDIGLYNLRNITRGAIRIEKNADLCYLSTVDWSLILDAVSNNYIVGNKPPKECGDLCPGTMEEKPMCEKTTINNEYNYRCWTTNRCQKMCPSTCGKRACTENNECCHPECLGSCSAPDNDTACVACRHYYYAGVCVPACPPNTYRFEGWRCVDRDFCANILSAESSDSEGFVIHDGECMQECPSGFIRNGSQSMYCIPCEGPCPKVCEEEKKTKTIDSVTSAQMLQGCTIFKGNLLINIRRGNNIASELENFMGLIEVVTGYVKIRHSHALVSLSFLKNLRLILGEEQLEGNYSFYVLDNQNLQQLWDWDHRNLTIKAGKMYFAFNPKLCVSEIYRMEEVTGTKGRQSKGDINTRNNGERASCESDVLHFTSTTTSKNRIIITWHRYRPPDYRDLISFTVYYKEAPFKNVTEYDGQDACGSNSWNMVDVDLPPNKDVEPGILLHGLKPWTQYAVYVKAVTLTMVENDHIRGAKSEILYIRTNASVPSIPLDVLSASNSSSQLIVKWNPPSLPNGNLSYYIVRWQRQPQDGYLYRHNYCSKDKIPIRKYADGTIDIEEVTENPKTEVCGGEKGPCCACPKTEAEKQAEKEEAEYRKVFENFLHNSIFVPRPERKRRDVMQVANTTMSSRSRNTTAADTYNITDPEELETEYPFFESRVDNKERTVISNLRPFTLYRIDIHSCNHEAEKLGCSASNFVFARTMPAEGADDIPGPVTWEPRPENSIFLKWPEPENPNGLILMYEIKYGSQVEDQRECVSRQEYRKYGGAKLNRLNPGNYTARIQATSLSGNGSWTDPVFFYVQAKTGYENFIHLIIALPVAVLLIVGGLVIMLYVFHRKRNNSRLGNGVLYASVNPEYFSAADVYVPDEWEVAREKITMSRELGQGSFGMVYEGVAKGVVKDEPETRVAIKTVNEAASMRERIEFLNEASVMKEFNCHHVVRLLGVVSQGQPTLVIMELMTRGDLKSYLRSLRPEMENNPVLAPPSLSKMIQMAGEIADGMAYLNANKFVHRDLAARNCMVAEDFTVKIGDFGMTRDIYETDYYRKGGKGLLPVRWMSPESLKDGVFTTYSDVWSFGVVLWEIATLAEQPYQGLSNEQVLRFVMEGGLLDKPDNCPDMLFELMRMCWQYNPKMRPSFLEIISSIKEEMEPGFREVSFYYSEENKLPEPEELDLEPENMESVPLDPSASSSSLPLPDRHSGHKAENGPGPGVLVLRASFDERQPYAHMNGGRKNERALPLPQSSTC
Give your result in % as a bare value.

Sample answers from the record:
{"Compound": "O=C1Nc2ccccc2C1=Cc1ccc2c(/C=C/c3ccccn3)n[nH]c2c1 (mixture of isomers)", "Result value": 43}
{"Compound": "O=C1Nc2ccccc2/C1=C\\c1ccc2c(/C=C/c3ccccc3Cl)n[nH]c2c1", "Result value": 81}
{"Compound": "O=C1Nc2ccccc2/C1=C\\c1ccc2[nH]nnc2c1", "Result value": 7}
{"Compound": "COc1ccc2c(c1)C(=Cc1ccc3c(-c4ccc(N5CCN(C)CC5)nc4)n[nH]c3c1)C(=O)N2 (mixture of isomers)", "Result value": 4}

--- query ---
Recall the recorded inhibition at 10 µM for O=C1Nc2ccccc2/C1=C\c1ccc2cn[nH]c2c1 with IGF1R kinase (Homo sapiens) and state it.
-4

* * *

biological target: CSK (Homo sapiens); construct: CEREP, France (ran the assays); assay: Kinase Selectivity Assay (CEREP, HTRF); type: biochemical; conditions: read-out: % Inhibition at 10 μM Concentration, CSK
Sequence (P41240 whole entry): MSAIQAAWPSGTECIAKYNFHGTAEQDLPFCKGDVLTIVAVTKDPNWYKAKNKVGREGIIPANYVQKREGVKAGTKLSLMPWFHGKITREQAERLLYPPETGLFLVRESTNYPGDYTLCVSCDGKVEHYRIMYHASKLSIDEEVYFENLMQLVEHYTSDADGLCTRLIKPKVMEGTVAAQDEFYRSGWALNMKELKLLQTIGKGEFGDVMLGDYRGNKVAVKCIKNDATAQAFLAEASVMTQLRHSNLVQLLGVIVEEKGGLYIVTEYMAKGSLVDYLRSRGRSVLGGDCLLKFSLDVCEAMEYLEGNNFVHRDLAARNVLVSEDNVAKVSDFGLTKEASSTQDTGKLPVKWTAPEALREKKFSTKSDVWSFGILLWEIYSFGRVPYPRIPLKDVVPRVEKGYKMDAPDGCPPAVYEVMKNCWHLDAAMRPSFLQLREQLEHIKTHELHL
Measurement type: inhibition at 10 µM (%)
Write the answer as a number in %, unit excluded.

{"Compound": "O=C1Nc2ccccc2C1=Cc1ccc2c(/C=C/c3ccccn3)n[nH]c2c1 (mixture of isomers)", "Result value": 86}

Entry O=C1Nc2ccccc2/C1=C\c1ccc2cn[nH]c2c1 : reported inhibition at 10 µM = ?
5

Same lookup for O=C1Nc2ccccc2/C1=C\c1ccc2c(/C=C/c3ccccc3Cl)n[nH]c2c1 , please.
17

Would you mind doing O=C1Nc2ccccc2/C1=C\c1ccc2[nH]nnc2c1 as well?
8

COc1ccc2c(c1)C(=Cc1ccc3c(-c4ccc(N5CCN(C)CC5)nc4)n[nH]c3c1)C(=O)N2 (mixture of isomers) , same question.
51

* * *

target: TRKA (Homo sapiens); test: Kinase Selectivity Assay (CEREP, HTRF); type: biochemical; parameters: purchased CEREP, France (contract assay service); details: read-out: % Inhibition at 10 μM Concentration, TRKA
Sequence (P04629 33-796): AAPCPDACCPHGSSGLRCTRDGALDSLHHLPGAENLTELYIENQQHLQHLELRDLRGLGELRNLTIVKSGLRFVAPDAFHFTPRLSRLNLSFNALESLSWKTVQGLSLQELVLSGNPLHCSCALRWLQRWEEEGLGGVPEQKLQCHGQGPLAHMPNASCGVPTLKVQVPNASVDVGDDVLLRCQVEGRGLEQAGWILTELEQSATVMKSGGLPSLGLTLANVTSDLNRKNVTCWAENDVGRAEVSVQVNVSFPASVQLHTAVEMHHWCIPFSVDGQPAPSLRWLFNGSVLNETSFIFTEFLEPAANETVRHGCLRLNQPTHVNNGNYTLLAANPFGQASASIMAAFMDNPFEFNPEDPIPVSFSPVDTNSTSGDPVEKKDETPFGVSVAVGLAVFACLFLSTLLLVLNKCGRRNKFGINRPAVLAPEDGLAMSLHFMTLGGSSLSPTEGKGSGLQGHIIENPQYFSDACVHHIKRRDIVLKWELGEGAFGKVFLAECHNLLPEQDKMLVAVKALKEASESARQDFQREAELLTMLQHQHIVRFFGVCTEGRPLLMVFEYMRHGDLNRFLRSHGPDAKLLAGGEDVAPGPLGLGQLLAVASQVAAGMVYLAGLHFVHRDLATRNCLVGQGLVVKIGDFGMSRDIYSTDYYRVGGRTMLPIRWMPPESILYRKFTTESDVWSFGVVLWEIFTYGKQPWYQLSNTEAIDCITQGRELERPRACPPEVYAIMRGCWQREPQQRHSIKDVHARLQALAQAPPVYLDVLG
Measurement type: inhibition at 10 µM (%)
Entry rule: numbers only, all in %.

// worked examples, inhibition at 10 µM included
{"Compound": "COc1ccc2c(c1)C(=Cc1ccc3c(-c4ccc(N5CCN(C)CC5)nc4)n[nH]c3c1)C(=O)N2 (mixture of isomers) [Example A97]", "inhibition at 10 µM [%]": 93}
{"Compound": "O=C1Nc2ccccc2/C1=C\\c1ccc2c(/C=C/c3ccccc3Cl)n[nH]c2c1 [Example A60]", "inhibition at 10 µM [%]": 75}
{"Compound": "O=C1Nc2ccccc2/C1=C\\c1ccc2cn[nH]c2c1 [Example A5]", "inhibition at 10 µM [%]": 60}
{"Compound": "O=C1Nc2ccccc2/C1=C\\c1ccc2[nH]nnc2c1 [Example A1]", "inhibition at 10 µM [%]": -13}

Form: Entry = O=C1Nc2ccccc2C1=Cc1ccc2c(/C=C/c3ccccn3)n[nH]c2c1 (mixture of isomers) [Example A41] | System = TRKA (Homo sapiens) | inhibition at 10 µM = ____
99
